assay: Phase 1 first-in-human Study Compound 1-001 (NCT03845166): plasma pharmacokinetics; format: in vivo; details: human, plasma, oral, 40 mg, 40 mg Tablet; Steady-State (Day 28); mean ± SD
measurement-type: Cmax
Reply with the number, then its unit.

Specify reported Cmax for the molecule shown: CNC(=O)c1cc2c(Oc3ccc(NC(=O)C4(C(=O)Nc5ccc(F)cc5)CC4)cc3)ccnc2cc1OC
656 ng/mL

----------
experiment: In vitro plasma protein binding; format: in vitro ADME, human; conditions: human, plasma; 0.2 and 1 μM
measurement-type: fraction unbound

Look up and state reported fraction unbound for CNC(=O)c1cc2c(Oc3ccc(NC(=O)C4(C(=O)Nc5ccc(F)cc5)CC4)cc3)ccnc2cc1OC
< 0.01

----------
assay: Phase 1 first-in-human Study Compound 1-001 (NCT03845166): plasma pharmacokinetics; assay type: in vivo; details: human, plasma, oral, 10 mg, 10 mg PIB; First Dose (Day 1); mean ± SD
measurement-type: Cmax (ng/mL)
Response body: numeric value in ng/mL, unit text excluded.

Look up and state reported Cmax for CNC(=O)c1cc2c(Oc3ccc(NC(=O)C4(C(=O)Nc5ccc(F)cc5)CC4)cc3)ccnc2cc1OC
35.7

----------
test: Phase 1 first-in-human Study Compound 1-001 (NCT03845166): plasma pharmacokinetics; format: in vivo; details: human, plasma, oral, 40 mg, 40 mg Tablet; Steady-State (Day 28); mean ± SD; read-out: t1/2 (terminal phase half-life) (converted)
measurement-type: half-life (h)
I only need the number, in h, no unit after it.

# return recorded half-life for entry CNC(=O)c1cc2c(Oc3ccc(NC(=O)C4(C(=O)Nc5ccc(F)cc5)CC4)cc3)ccnc2cc1OC
24.2

----------
target: UniProt:P10635
Sequence (P10635 whole entry): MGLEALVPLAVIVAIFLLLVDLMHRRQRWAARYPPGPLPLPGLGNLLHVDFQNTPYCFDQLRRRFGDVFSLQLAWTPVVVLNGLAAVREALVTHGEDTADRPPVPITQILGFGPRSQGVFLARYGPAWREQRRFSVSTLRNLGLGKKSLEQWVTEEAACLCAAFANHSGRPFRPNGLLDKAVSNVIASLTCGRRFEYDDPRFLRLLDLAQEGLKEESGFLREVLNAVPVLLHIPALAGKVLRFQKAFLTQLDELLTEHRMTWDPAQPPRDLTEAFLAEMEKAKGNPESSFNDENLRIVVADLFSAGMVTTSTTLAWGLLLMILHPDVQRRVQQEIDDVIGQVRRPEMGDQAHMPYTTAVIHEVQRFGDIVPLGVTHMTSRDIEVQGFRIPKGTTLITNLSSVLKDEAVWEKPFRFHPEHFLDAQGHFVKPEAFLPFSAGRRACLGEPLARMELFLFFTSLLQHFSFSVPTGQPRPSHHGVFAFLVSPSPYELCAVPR
pIC50: −log10 of the molar value.
measurement-type: pIC50

Give recorded pIC50. CNC(=O)c1cc2c(Oc3ccc(NC(=O)C4(C(=O)Nc5ccc(F)cc5)CC4)cc3)ccnc2cc1OC
< 4.48

----------
assay: Tablet versus PIB formulation, single oral 20 mg dose, parallel design; assay type: in vivo, dogs; conditions: beagle, dog, plasma, po, 20 mg, 20 mg reconstituted oral suspension of PIB formulation; read-out: t1/2, z (mean) (converted)
measurement-type: half-life (h)
// note: answer is a bare numeric in h

Report measured half-life; entry is CNC(=O)c1cc2c(Oc3ccc(NC(=O)C4(C(=O)Nc5ccc(F)cc5)CC4)cc3)ccnc2cc1OC [Compound 1]
4.85

----------
assay: Phase 1 first-in-human Study Compound 1-001 (NCT03845166): plasma pharmacokinetics; type: in vivo; conditions: human, plasma, oral, 10 mg, 10 mg PIB; First Dose (Day 1); median (min, max); read-out: Tmax
measurement-type: Tmax (h)
Your answer should be a plain number; it is taken to be in h.

Note down Tmax recorded for CNC(=O)c1cc2c(Oc3ccc(NC(=O)C4(C(=O)Nc5ccc(F)cc5)CC4)cc3)ccnc2cc1OC [Compound 1]
1

----------
system: CYP2C19; test: Cytochrome P450 induction (mRNA levels) in fresh primary human hepatocytes; type: in vitro ADME; conditions: human, fresh primary human hepatocytes; mRNA induction; read-out: half-maximal effective concentration (EC50)
measurement-type: EC50
Kindly report the value followed by its unit.

Retrieve EC50 measured for CNC(=O)c1cc2c(Oc3ccc(NC(=O)C4(C(=O)Nc5ccc(F)cc5)CC4)cc3)ccnc2cc1OC and print it.
6.21 µM

----------
assay: Single-dose plasma PK, IV and oral (PEG 400:EtOH:RO water); assay type: in vivo, dogs; details: beagle, dog, plasma; single-dose IV; read-out: mean volume of distribution at steady-state (Vss)
measurement-type: Vd (L/kg)
Entry rule: numbers only, all in L/kg.

Query Vd for CNC(=O)c1cc2c(Oc3ccc(NC(=O)C4(C(=O)Nc5ccc(F)cc5)CC4)cc3)ccnc2cc1OC
1.98

----------
test: Phase 1 first-in-human Study Compound 1-001 (NCT03845166): plasma pharmacokinetics; type: in vivo; details: human, plasma, oral, 20 mg, 20 mg PIB; Steady-State (Day 28), N = 3; median (min, max)
measurement-type: Tmax at 28 days (h)
Give just the numeric value; h need not be written.

Give the value of Tmax at 28 days reported for the following: CNC(=O)c1cc2c(Oc3ccc(NC(=O)C4(C(=O)Nc5ccc(F)cc5)CC4)cc3)ccnc2cc1OC [Compound 1]
2

----------
test: Phase 1 first-in-human Study Compound 1-001 (NCT03845166): plasma pharmacokinetics; format: in vivo; settings: human, plasma, oral, 20 mg, 20 mg PIB; First Dose (Day 1); mean ± SD
measurement-type: Cmax (ng/mL)
Write the answer as a number in ng/mL, unit excluded.

Please list Cmax recorded for the compound CNC(=O)c1cc2c(Oc3ccc(NC(=O)C4(C(=O)Nc5ccc(F)cc5)CC4)cc3)ccnc2cc1OC
91.9

----------
experiment: Phase 1 first-in-human Study Compound 1-001 (NCT03845166): plasma pharmacokinetics; type: in vivo; settings: human, plasma, oral, 40 mg, 40 mg Tablet; First Dose (Day 1); mean ± SD
measurement-type: Cmax
Write the numeric value and follow it with the unit.

Indicate the recorded Cmax value for this molecule: CNC(=O)c1cc2c(Oc3ccc(NC(=O)C4(C(=O)Nc5ccc(F)cc5)CC4)cc3)ccnc2cc1OC
521 ng/mL

----------
assay: Phase 1 first-in-human Study Compound 1-001 (NCT03845166): plasma pharmacokinetics; assay type: in vivo; conditions: human, plasma, oral, 10 mg, 10 mg PIB; First Dose (Day 1); mean ± SD; read-out: AUC0-24
measurement-type: AUC(0-t)
Answer format reminder: number followed by unit.

Give reported AUC(0-t) value for CNC(=O)c1cc2c(Oc3ccc(NC(=O)C4(C(=O)Nc5ccc(F)cc5)CC4)cc3)ccnc2cc1OC
510 ng·h/mL

----------
target: MER (Homo sapiens, UniProt Q12866); test: RTK autophosphorylation ELISA, 293A cells transfected with receptor expression vector; type: cell-based; set-up: expressed in transfected cells; host or cells: 293A; settings: no ligand, read-out: Cellular IC50
Sequence (Q12866 21-999): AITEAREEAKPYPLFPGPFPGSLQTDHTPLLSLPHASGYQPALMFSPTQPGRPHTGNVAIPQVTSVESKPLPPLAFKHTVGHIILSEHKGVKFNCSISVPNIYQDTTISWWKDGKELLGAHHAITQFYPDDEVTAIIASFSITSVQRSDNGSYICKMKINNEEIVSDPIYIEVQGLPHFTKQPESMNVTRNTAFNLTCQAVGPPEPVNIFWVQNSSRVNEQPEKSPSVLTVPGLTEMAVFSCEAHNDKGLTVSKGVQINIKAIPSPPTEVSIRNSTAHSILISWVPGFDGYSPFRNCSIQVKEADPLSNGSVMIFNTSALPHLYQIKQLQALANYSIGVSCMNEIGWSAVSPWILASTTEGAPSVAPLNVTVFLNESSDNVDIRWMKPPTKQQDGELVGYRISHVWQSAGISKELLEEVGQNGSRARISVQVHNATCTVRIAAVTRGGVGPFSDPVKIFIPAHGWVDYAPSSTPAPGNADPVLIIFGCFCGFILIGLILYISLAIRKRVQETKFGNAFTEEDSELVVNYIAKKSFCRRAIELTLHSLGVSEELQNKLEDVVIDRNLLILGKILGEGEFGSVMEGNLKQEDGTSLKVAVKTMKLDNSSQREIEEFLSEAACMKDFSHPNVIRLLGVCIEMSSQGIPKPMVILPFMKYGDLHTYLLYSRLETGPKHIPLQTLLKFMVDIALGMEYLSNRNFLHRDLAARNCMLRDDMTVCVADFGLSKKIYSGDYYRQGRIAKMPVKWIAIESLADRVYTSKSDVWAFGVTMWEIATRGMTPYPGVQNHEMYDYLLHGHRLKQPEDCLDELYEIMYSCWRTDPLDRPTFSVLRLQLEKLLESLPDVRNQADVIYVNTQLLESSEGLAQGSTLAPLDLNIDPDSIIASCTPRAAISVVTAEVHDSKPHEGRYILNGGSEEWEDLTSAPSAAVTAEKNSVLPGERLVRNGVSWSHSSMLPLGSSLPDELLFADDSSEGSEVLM
measurement-type: IC50 (nM)
Give just the numeric value; nM need not be written.

Return the recorded IC50 value; entry: CNC(=O)c1cc2c(Oc3ccc(NC(=O)C4(C(=O)Nc5ccc(F)cc5)CC4)cc3)ccnc2cc1OC
7.1

----------
test system: CYP2C9; experiment: Cytochrome P450 induction (mRNA levels) in fresh primary human hepatocytes; type: in vitro ADME; conditions: human, fresh primary human hepatocytes; mRNA induction; read-out: half-maximal effective concentration (EC50)
measurement-type: EC50 (µM)
Numbers only; they are read as µM.

Consider the molecule CNC(=O)c1cc2c(Oc3ccc(NC(=O)C4(C(=O)Nc5ccc(F)cc5)CC4)cc3)ccnc2cc1OC [Compound 1] . State its measured EC50.
1.71

----------
molecular target: MET (Homo sapiens); experiment: Kinase catalytic activity assay, radioactive assay platform; assay type: biochemical; details: 10 μM ATP
Sequence (P08581 25-1390): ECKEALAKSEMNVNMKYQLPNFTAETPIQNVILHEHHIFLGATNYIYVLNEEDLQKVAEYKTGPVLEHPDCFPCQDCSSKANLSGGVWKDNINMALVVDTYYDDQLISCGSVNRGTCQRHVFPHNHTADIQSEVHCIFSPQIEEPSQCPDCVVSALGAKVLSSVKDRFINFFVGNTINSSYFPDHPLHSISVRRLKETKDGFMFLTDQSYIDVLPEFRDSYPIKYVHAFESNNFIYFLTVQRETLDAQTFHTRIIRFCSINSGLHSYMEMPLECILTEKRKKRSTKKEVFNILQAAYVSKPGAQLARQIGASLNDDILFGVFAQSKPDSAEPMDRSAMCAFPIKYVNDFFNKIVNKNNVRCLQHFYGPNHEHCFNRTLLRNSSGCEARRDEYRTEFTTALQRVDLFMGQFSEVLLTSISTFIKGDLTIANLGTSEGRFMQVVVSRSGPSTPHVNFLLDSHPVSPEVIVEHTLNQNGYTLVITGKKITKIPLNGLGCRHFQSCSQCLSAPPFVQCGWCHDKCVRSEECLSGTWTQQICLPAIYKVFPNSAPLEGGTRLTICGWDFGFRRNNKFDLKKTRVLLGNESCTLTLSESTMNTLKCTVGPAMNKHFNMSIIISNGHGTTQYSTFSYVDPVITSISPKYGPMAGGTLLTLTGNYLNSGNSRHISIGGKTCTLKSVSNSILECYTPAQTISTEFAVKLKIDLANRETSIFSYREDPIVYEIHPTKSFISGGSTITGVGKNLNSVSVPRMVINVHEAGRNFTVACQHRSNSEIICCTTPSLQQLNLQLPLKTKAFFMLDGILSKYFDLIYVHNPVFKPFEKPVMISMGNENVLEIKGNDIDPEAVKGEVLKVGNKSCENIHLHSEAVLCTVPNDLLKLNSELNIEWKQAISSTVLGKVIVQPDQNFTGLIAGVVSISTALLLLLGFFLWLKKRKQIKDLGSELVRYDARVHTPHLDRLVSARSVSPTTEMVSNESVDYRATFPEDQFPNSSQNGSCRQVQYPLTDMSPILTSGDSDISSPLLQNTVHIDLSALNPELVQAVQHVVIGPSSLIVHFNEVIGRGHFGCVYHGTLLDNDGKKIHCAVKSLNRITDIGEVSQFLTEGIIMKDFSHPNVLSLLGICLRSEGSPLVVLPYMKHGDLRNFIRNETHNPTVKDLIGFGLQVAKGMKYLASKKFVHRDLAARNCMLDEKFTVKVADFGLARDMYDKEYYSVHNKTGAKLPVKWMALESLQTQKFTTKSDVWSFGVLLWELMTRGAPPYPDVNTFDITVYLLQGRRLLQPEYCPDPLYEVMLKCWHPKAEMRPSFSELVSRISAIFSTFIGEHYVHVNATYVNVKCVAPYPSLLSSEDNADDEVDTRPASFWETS
measurement-type: pIC50
Here pIC50 is given on a logarithmic scale as minus log10 of the concentration in mol/L.

Please look at this compound and report its pIC50: CNC(=O)c1cc2c(Oc3ccc(NC(=O)C4(C(=O)Nc5ccc(F)cc5)CC4)cc3)ccnc2cc1OC
8.52

----------
assay: Phase 1 first-in-human Study Compound 1-001 (NCT03845166): plasma pharmacokinetics; assay type: in vivo; settings: human, plasma, oral, 80 mg, 80 mg Tablet; First Dose (Day 1); median (min, max); read-out: Tmax
measurement-type: Tmax (h)
Numeric only. Scale: h

Give Tmax for the following compound: CNC(=O)c1cc2c(Oc3ccc(NC(=O)C4(C(=O)Nc5ccc(F)cc5)CC4)cc3)ccnc2cc1OC [Compound 1]
2
